system: UniProt:P10276
Sequence (P10276 183-417 limits assumed): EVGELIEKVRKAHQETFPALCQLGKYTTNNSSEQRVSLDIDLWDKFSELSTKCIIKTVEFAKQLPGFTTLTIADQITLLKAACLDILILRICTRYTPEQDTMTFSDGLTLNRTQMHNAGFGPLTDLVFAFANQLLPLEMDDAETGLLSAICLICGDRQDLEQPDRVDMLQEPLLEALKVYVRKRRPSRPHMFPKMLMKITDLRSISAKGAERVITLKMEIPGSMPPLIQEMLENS
method notes: Transactivation test (Kdapp), RARalpha
Format: cell-based
condition: HeLa stable transfectants, luciferase reporter; crossed curves against reference agonist, Schild regression; hydrochloride
pKd: −log10 of the molar value. Structures can show the parent of a compound that is named as a salt.

# compound, system, pKd
records = [
    ("CCN(CC)c1ccc(-c2cc(-c3ccc(C(=O)O)cc3)ccc2CCCO)cc1C(C)(C)C [Example 52, hydrochloride]", "UniProt:P10276", 7.52),
]

----------
system: RARbeta (Homo sapiens, UniProt P10826)
Sequence (P10826 183-417 limits assumed): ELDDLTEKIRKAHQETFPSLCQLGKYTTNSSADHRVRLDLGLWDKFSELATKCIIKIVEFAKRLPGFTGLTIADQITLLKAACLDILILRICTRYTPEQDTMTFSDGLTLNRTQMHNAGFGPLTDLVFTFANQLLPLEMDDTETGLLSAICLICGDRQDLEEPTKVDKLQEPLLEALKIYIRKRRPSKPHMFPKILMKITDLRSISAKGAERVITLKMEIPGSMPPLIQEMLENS
method notes: Transactivation test (Kdapp), RARbeta
Format: cell-based
condition: HeLa stable transfectants, luciferase reporter; crossed curves against reference agonist, Schild regression
pKd: −log10 of the molar value.
readout: pKd

# compound, readout, measured result
rows = [
    ("CCN(CC)c1ccc(-c2cc(-c3ccc(C(=O)O)cc3)ccc2CC(O)CO)cc1C(C)(C)C (centres unmarked)", "pKd", 6.30),
    ("CCN(C(C)=O)c1ccc(-c2cc(-c3ccc(C(=O)O)cc3)ccc2CCCO)cc1C(C)(C)C", "pKd", 6.92),
    ("CCN(CC)c1ccc(-c2cc(-c3ccc(C(=O)O)cc3)ccc2CCCO)cc1C(C)(C)C", "pKd", 8.10),
    ("CCc1cc(-c2cc(-c3ccc(C(=O)O)cc3)ccc2OCCO)ccc1N(CC)CC", "pKd", 8.40),
    ("CCN(C(C)=O)c1ccc(-c2cc(-c3ccc(C(=O)O)cc3)ccc2OCCCCO)cc1C(C)(C)C", "pKd", 8.10),
    ("CCN(CC)c1ccc(-c2cc(-c3ccc(C(=O)O)cc3)ccc2OCCCO)cc1C", "pKd", 8.10),
    ("CCNc1ccc(-c2cc(-c3ccc(C(=O)O)cc3)ccc2OCCCO)cc1C(C)(C)C", "pKd", 8.40),
    ("CCN(C(C)=O)c1ccc(-c2cc(-c3ccc(C(=O)O)cc3)ccc2CCCNC2CC2)cc1C(C)(C)C", "pKd", 6.60),
]
